# target or system: Integrin alpha-4/beta-1 (Homo sapiens, UniProt P05556+P13612)
# Sequence (P05556 whole entry): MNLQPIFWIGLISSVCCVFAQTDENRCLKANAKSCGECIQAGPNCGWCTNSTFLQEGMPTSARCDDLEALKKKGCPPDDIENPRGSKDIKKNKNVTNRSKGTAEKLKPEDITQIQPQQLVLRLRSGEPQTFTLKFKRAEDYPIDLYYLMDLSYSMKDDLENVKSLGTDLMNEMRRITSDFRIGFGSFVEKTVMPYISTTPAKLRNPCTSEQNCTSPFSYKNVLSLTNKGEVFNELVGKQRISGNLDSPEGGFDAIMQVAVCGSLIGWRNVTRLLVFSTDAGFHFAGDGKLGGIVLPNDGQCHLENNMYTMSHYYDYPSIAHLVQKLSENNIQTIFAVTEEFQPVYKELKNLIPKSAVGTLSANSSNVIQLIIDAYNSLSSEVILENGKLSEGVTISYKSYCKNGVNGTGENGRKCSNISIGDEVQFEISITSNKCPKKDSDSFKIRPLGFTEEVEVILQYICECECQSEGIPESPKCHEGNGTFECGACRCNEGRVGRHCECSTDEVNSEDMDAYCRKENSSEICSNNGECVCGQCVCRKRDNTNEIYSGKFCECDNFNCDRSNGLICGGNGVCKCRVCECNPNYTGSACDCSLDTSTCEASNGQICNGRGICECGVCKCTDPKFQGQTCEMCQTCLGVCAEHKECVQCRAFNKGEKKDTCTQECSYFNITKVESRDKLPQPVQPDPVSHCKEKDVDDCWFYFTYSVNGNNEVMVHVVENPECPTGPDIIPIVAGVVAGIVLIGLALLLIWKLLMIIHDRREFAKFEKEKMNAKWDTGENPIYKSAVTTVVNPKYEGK
# Sequence (P13612 whole entry): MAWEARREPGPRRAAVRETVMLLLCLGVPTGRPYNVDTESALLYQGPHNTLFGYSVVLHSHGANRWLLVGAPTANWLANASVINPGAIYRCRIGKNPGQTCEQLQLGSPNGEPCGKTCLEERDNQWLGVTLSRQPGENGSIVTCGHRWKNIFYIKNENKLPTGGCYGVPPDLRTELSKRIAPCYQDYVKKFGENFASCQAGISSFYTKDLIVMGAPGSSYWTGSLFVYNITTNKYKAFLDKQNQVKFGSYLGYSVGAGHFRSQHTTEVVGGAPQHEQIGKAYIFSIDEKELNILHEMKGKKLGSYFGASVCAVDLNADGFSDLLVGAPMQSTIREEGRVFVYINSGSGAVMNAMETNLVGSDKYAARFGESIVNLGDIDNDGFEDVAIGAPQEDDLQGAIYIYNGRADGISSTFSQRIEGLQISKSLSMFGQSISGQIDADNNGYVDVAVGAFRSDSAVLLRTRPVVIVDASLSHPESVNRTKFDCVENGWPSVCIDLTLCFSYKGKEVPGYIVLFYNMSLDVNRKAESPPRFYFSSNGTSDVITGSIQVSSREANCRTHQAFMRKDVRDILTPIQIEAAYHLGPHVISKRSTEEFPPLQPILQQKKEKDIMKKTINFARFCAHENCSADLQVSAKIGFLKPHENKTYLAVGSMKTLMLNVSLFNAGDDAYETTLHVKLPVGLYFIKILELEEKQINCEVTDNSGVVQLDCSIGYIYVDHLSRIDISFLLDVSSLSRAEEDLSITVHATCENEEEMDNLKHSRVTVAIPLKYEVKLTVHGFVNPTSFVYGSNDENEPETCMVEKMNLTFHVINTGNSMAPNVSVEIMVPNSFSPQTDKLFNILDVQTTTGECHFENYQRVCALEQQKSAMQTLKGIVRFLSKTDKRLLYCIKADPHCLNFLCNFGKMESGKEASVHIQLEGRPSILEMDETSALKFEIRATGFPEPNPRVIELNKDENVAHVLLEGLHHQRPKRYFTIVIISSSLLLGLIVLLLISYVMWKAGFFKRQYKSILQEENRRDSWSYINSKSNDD
# experimental details: Inhibition of very late antigen-4 alpha4-beta1 (VLA-4), I-VCAM-Ig as radioligand
# Type: protein-complex assay
Each record is given Satisfied if its reported IC50 is strictly below 4 nM. Records at or above 4 nM are given Not satisfied.

Is the reported IC50 for "COc1ccccc1-c1ccc(C[C@H](NC(=O)N2CCCN2S(=O)(=O)c2cc(Cl)cc(Cl)c2)C(=O)O)cc1" strictly below 4 nM?
Satisfied

Is the reported IC50 for "C[C@]1(C(=O)N[C@@H](Cc2ccc(-n3ccccc3=O)cc2)C(=O)O)CCCO1" strictly below 4 nM?
Not satisfied

Is the reported IC50 for COc1ccccc1-c1ccc(C[C@H](NC(=O)C2CCCCO2)C(=O)O)cc1 (some centres undefined) strictly below 4 nM?
Not satisfied

Is the reported IC50 for "C[C@]1(C(=O)N[C@@H](Cc2ccc(-c3ccccc3C#N)cc2)C(=O)O)CCCO1" strictly below 4 nM?
Not satisfied

Is the reported IC50 for COc1ccccc1-c1ccc(C[C@H](NC(=O)C2CCOC2)C(=O)O)cc1 (some centres undefined) strictly below 4 nM?
Not satisfied

Is the reported IC50 for COc1ccccc1-c1ccc(C[C@H](NC(=O)C2(C)CCCS2(=O)=O)C(=O)O)cc1 (some centres undefined) strictly below 4 nM?
Satisfied

Is the reported IC50 for "COc1ccccc1-c1ccc(C[C@H](NC(=O)C2CCCC2)C(=O)O)cc1" strictly below 4 nM?
Not satisfied
